Each item that follows carries a reported bioavailability.
# Run description: Oral availability in rat
# Format: ADME
# Experimental conditions: in vivo
Reply with the number and its unit after it.

Inquiry: Can you share its bioavailability? I mean this compound: `C[C@H](N)C(=O)NC[C@H](CCCB(O)O)[C@H](N)C(=O)O`
Reply text: 5.1%

Inquiry: Can you share its bioavailability? I mean this compound: `CC[C@H](C)[C@H](N)C(=O)NC[C@H](CCCB(O)O)[C@H](N)C(=O)O`
Reply text: 4.5%

Inquiry: Can you share its bioavailability? I mean this compound: `NC[C@@H](CCCB(O)O)[C@H](N)C(=O)O`
Reply text: 17%

Inquiry: Can you share its bioavailability? I mean this compound: `NC[C@H](CCCB(O)O)[C@H](N)C(=O)O`
Reply text: 11%

Inquiry: Can you share its bioavailability? I mean this compound: `CC(C)[C@H](N)C(=O)NC[C@H](CCCB(O)O)[C@H](N)C(=O)O`
Reply text: 8.3%

Inquiry: Can you share its bioavailability? I mean this compound: `CC[C@H](N)C(=O)NC[C@H](CCCB(O)O)[C@H](N)C(=O)O`
Reply text: 1.5%
